Test system: Saccharomyces cerevisiae
Experiment: protein stability index of tFT-peptide fusion (C-terminal peptide) (PSI (0-1 scale)); higher = more stable (slower turnover)
Conditions: genetic background: wild type; temperature: 30 C
Response key: met means protein stability index >= 0.3; not met means protein stability index < 0.3.

SEQUENCE CONTENT: EVTRMLRVVREI
ASSIGNED CATEGORY: met
--
SEQUENCE CONTENT: RALYLLALVGVS
ASSIGNED CATEGORY: not met
--
SEQUENCE CONTENT: GLPGYAWGRSGG
ASSIGNED CATEGORY: met
--
SEQUENCE CONTENT: CSLRLCVRGAIV
ASSIGNED CATEGORY: met
--
SEQUENCE CONTENT: HALCLSVYVSAH
ASSIGNED CATEGORY: not met

[Q] Determine whether this sequence has protein stability index no lower than 0.3: VSDLYLSLVRVV
[A] met

[Q] Again, but for IEVGVAILLLGE
[A] met

[Q] Thanks! And VGAYSVVYVVFS ?
[A] met

[Q] Lookup SLEACYCFVVLV
[A] not met

[Q] Same for LIFFFCSWVFRF
[A] not met

----------
System: Saccharomyces cerevisiae
Assay: protein stability index of tFT-peptide fusion (C-terminal peptide) (PSI (0-1 scale)); higher = more stable (slower turnover)
Details: genetic background: wild type; temperature: 30 C
Classification field: TRUE = protein stability index at or over 0.7; FALSE = protein stability index under 0.7.

SEQUENCE CONTENT: PPPPAAFFPRSP
STUDY SYSTEM: Saccharomyces cerevisiae
ASSIGNED CATEGORY: TRUE
--
SEQUENCE CONTENT: KKKRMKIKCIGI
STUDY SYSTEM: Saccharomyces cerevisiae
ASSIGNED CATEGORY: FALSE
--
SEQUENCE CONTENT: IPSHSVLCLSIY
STUDY SYSTEM: Saccharomyces cerevisiae
ASSIGNED CATEGORY: FALSE

[Q] Decide: protein stability index of PLTNPPCLTKYP >= 0.7?
[A] TRUE

[Q] Now give it for LGGWLWSPGVVV too.
[A] FALSE

[Q] Can you check FFCSLIISRFLL next?
[A] FALSE

[Q] Thanks! And SRCFGGRCQVIE ?
[A] FALSE

[Q] Moving on to the next sequence: SHSTNNHKLTPR
[A] FALSE

[Q] Now consider LYQRCVCSFREK and answer again.
[A] FALSE

[Q] PTITPPPPPPPP , same question.
[A] FALSE

[Q] Then this sequence: FCSLLDSLVGGC
[A] TRUE

----------
System: Saccharomyces cerevisiae
Assay: protein stability index of tFT-peptide fusion (C-terminal peptide) (PSI (0-1 scale)); higher = more stable (slower turnover)
Settings: genetic background: wild type; temperature: 30 C
met means recorded protein stability index is 0.7 or above; not met means it is below 0.7.

SEQUENCE CONTENT: KRMALFVQEKLA [YFL031C-A C-terminal 12 aa]
STUDY SYSTEM: Saccharomyces cerevisiae
ASSIGNED CATEGORY: not met

SEQUENCE CONTENT: CVWESMSNWLQK [YEL034C-A C-terminal 12 aa]
STUDY SYSTEM: Saccharomyces cerevisiae
ASSIGNED CATEGORY: met

[Q] Is the recorded value of protein stability index equal to or greater than 0.7 for this sequence? RPFYKRMFTKEK [HXT5 C-terminal 12 aa]
[A] met

----------
Test system: Saccharomyces cerevisiae
Assay: protein stability index of tFT-peptide fusion (C-terminal peptide) (PSI (0-1 scale)); higher = more stable (slower turnover)
Conditions: genetic background: wild type; temperature: 30 C
Please use Fulfilled whenever protein stability index is not below 0.7, and Not fulfilled whenever it is.

SEQUENCE CONTENT: FANKLYSVFMDN
ASSIGNED CATEGORY: Not fulfilled

SEQUENCE CONTENT: YVVMARWSRWYV
ASSIGNED CATEGORY: Not fulfilled

SEQUENCE CONTENT: VKWFRESRMVGA
ASSIGNED CATEGORY: Not fulfilled

SEQUENCE CONTENT: AGRGRGPRSAGS
ASSIGNED CATEGORY: Not fulfilled

SEQUENCE CONTENT: PHPPPVPAPPPP
ASSIGNED CATEGORY: Not fulfilled

[Q] Hi, just wondering whether WGVVMVCVVFGL shows protein stability index of 0.7 or higher.
[A] Not fulfilled

[Q] How about this sequence: QTHFRPDYALDW
[A] Fulfilled

[Q] How about SCRLYIKVDKSA ?
[A] Not fulfilled

[Q] Try this sequence next: RILSLQFILCKR
[A] Not fulfilled

[Q] Same thing, different sequence: WVFSGTWSSVSG
[A] Not fulfilled

----------
Below: a set of entries, each annotated with reported protein stability index.
Test system: Saccharomyces cerevisiae
Test: protein stability index of tFT-peptide fusion (C-terminal peptide) (PSI (0-1 scale)); higher = more stable (slower turnover)
Conditions: genetic background: das1 deletion; temperature: 30 C
Write the number on its own, no unit after it.

In the examples that follow, each entry is paired with its recorded protein stability index.
SEQUENCE CONTENT: AIAPTSLLTPMP [YER087C-A C-terminal 12 aa]
protein stability index: 0.694
--
SEQUENCE CONTENT: FDALMNNDGDSD [TIF4632 C-terminal 12 aa]
protein stability index: 0.68
--
SEQUENCE CONTENT: NPPISVSVTGDE [SRT1 C-terminal 12 aa]
protein stability index: 0.687
--
SEQUENCE CONTENT: FKMCETEMQPIK [YGR201C C-terminal 12 aa]
protein stability index: 0.704
--
SEQUENCE CONTENT: ENDDHLYIFGRN [TIM18 C-terminal 12 aa]
protein stability index: 0.743

Attention now shifts to the item below.
[Q] Dear colleague, I am looking for the recorded protein stability index of the following sequence: DSTAPKPIPGKE [YKL030W C-terminal 12 aa]
[A] 0.68

----------
System: Saccharomyces cerevisiae
Assay: protein stability index of tFT-peptide fusion (C-terminal peptide) (PSI (0-1 scale)); higher = more stable (slower turnover)
Conditions: genetic background: das1 deletion; temperature: 30 C
Label 1 for high-side protein stability index (at or above 0.4) and -1 for low-side protein stability index (below it).

Recorded results for 2 sequences are shown here.
SEQUENCE CONTENT: VFILGFLCLLFF
ASSIGNED CATEGORY: -1
--
SEQUENCE CONTENT: WCGSWGVWMRLG
ASSIGNED CATEGORY: 1

[Q] Is protein stability index at least 0.4? Consider LVGVLLAVWSVV
[A] -1

[Q] Quick one: LVMYRSALIRGH
[A] 1

[Q] Quick one: RLARRGGGWGPG
[A] 1

[Q] Also GVKSQLYSFVWF , if possible.
[A] 1

[Q] // same read-out, input: LLILIVNLRRIG
[A] -1

[Q] Another sequence to check: SCGVYVVFVLVE
[A] -1

----------
Test system: Saccharomyces cerevisiae
Experiment: protein stability index of tFT-peptide fusion (C-terminal peptide) (PSI (0-1 scale)); higher = more stable (slower turnover)
Settings: genetic background: wild type; temperature: 30 C
Each entry gets N if its protein stability index stays under 0.7, and Y if its protein stability index is 0.7 or above.

SEQUENCE CONTENT: PGPPSTAPHLPE
STUDY SYSTEM: Saccharomyces cerevisiae
ASSIGNED CATEGORY: N

Now consider the entry below.
[Q] Form field: protein stability index at least 0.7? Entry: SCFLAFSFLCLF
[A] N

----------
Measured protein stability index by item
System: Saccharomyces cerevisiae
Assay: protein stability index of tFT-peptide fusion (C-terminal peptide) (PSI (0-1 scale)); higher = more stable (slower turnover)
Details: genetic background: das1 deletion; temperature: 37 C
Output spec: single numeric token, no unit.

These solved cases illustrate the format of a correct answer.
SEQUENCE CONTENT: LNALSHCRAICS
protein stability index: 0.692
//
SEQUENCE CONTENT: RFCLLFVVAGGV
protein stability index: 0.546
//
SEQUENCE CONTENT: LLFPRVLVLCFS
protein stability index: 0.154
//
SEQUENCE CONTENT: ERFRLYFRPGIF
protein stability index: 0.709
//
SEQUENCE CONTENT: FFFFLVPVHCVI
protein stability index: 0.452

[Q] Fill in the blank: the reported protein stability index of FFFWLLCAGWLL is ____.
[A] 0.656

[Q] Same question for CCSRYLSNLCPI please.
[A] 0.726

[Q] And what about the sequence SIPVWTIELFAT ?
[A] 0.615

[Q] Try this sequence next: LVSWAWIWIFVF
[A] 0.417

----------
System: Saccharomyces cerevisiae
Assay: protein stability index of tFT-peptide fusion (C-terminal peptide) (PSI (0-1 scale)); higher = more stable (slower turnover)
Conditions: genetic background: wild type; temperature: 30 C
ASSAY METRIC: protein stability index
Number only, please.

SEQUENCE CONTENT: SGGRLVVCEGPG
protein stability index: 0.65

[Q] Dear colleague, I am looking for the recorded protein stability index of the following sequence: AGGGGRLTRSRA
[A] 0.691

[Q] Check VPLTKHENNFNE too.
[A] 0.709

[Q] Can you check PTVLFQFSESWP next?
[A] 0.668

[Q] And PTLIPPPPPPGP ?
[A] 0.718

[Q] Can you handle GRIMRVPNENLT next?
[A] 0.696

[Q] Cool, now KLREKKLLKIAE
[A] 0.679

[Q] // same read-out, input: FLFLTCPFSFSF
[A] 0.633

[Q] Again, but for IKMRKICLIGSM
[A] 0.603

[Q] What about QARQLEMYMVVF ?
[A] 0.432

Data provenance is the supplement of paper PMC10724198.
